tested-target: IgG receptor FcRn large subunit p51 (Homo sapiens)
Sequence (P55899 whole entry): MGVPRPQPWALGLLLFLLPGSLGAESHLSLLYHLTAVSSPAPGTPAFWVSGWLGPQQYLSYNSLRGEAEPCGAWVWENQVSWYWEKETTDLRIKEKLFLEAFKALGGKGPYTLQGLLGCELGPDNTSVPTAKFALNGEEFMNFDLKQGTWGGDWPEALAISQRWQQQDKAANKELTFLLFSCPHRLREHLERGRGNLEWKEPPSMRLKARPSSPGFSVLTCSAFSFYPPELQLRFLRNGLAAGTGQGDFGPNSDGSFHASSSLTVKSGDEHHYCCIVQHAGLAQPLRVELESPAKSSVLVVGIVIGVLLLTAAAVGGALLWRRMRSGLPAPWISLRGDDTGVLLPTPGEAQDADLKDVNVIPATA
protocol-description: Binding affinity to human FcRn at pH 6 by surface plasmon resonance assay
Square brackets hold non-standard residues; d marks the D form. Peptide text beside a SMILES is read from it. βAla = NCCC(=O)O
Kd strictly less than 4 µM = met. Otherwise not met.

Kd under 4 µM? Item: CC(C)C[C@H](NC(=O)CNC(=O)CNC(=O)[C@H](Cc1ccccc1)NC(=O)[C@H](Cc1cnc[nH]1)NC(=O)CNC(=O)[C@@H](NC(=O)[C@H](CCC(=O)O)NC(=O)[C@H](Cc1ccccc1)NC(=O)[C@H](CCCNC(=N)N)NC(=O)[C@@H](N)CCC(N)=O)[C@@H](C)O)C(=O)N[C@@H](Cc1ccc(O)cc1)C(=O)N1CCC[C@H]1C(=O)N[C@@H](CCN)C(=O)N[C@@H](CC(N)=O)C(=O)NCC(=O)N1CCC[C@H]1C(=O)O
not met

Kd under 4 µM? Item: CC(C)C[C@H](NC(=O)CNC(=O)CNC(=O)[C@H](Cc1ccccc1)NC(=O)[C@H](Cc1cnc[nH]1)NC(=O)CCNC(=O)[C@@H](NC(=O)[C@H](CS)NC(=O)[C@H](Cc1ccccc1)NC(=O)[C@H](CCCNC(=N)N)NC(=O)[C@@H](N)CCC(N)=O)[C@@H](C)O)C(=O)N[C@@H](Cc1ccc(O)cc1)C(=O)N1CCC[C@H]1C(=O)N[C@@H](CS)C(=O)N[C@@H](CC(N)=O)C(=O)NCC(=O)N1CCC[C@H]1C(=O)O (H-QRFCT[βAla]HFGGLYPCNGP-OH)
not met

Kd under 4 µM? Item: CC(C)C[C@H](NC(=O)[C@@H](Cc1cnc[nH]1)NC(=O)CNC(=O)[C@H](Cc1ccccc1)NC(=O)[C@H](Cc1cnc[nH]1)NC(=O)CNC(=O)[C@@H](NC(=O)[C@@H](NC(=O)[C@H](Cc1ccccc1)NC(=O)[C@H](CCCN=C(N)N)NC(=O)[C@@H](N)CCC(N)=O)C(C)(C)S)[C@@H](C)O)C(=O)N[C@@H](Cc1ccc(O)cc1)C(=O)N1CCC[C@H]1C(=O)N[C@@H](CS)C(=O)N[C@@H](CC(N)=O)C(=O)NCC(=O)N1CCC[C@H]1C(=O)O
met

Kd under 4 µM? Item: CC(C)C[C@H](NC(=O)CNC(=O)CNC(=O)[C@H](Cc1ccc(C(C)(C)C)cc1)NC(=O)[C@H](Cc1cnc[nH]1)NC(=O)CNC(=O)[C@@H](NC(=O)[C@@H](NC(=O)[C@H](Cc1ccccc1)NC(=O)[C@H](CCCNC(=N)N)NC(=O)[C@@H](N)CCC(N)=O)C(C)(C)S)[C@@H](C)O)C(=O)N[C@@H](Cc1ccc(O)cc1)C(=O)N1CCC[C@H]1C(=O)N[C@@H](CS)C(=O)O
not met

Kd under 4 µM? Item: CC(C)C[C@H](NC(=O)[C@@H](C)NC(=O)[C@@H](C)NC(=O)[C@H](Cc1ccccc1)NC(=O)[C@H](Cc1cnc[nH]1)NC(=O)CNC(=O)[C@@H](NC(=O)[C@H](CS)NC(=O)[C@H](Cc1ccccc1)NC(=O)[C@H](CCCN=C(N)N)NC(=O)[C@@H](N)CCC(N)=O)[C@@H](C)O)C(=O)N[C@@H](Cc1ccc(O)cc1)C(=O)N1CCC[C@H]1C(=O)N[C@@H](CS)C(=O)N[C@@H](CC(N)=O)C(=O)NCC(=O)N1CCC[C@H]1C(=O)O
not met

Kd under 4 µM? Item: CC(C)C[C@@H](C(=O)N[C@@H](Cc1ccc(O)cc1)C(=O)N1CCC[C@H]1C(=O)N[C@@H](CS)C(=O)N[C@@H](CC(N)=O)C(=O)NCC(=O)N1CCC[C@H]1C(=O)O)N(C)C(=O)CNC(=O)[C@@H](C)NC(=O)[C@H](Cc1ccccc1)NC(=O)[C@H](Cc1cnc[nH]1)NC(=O)CNC(=O)[C@@H](NC(=O)[C@@H](NC(=O)[C@H](Cc1ccccc1)NC(=O)[C@H](CCCNC(=N)N)NC(=O)[C@@H](N)CCC(N)=O)C(C)(C)S)[C@@H](C)O
met

Kd under 4 µM? Item: CC(C)C[C@H](NC(=O)CN1CCC[C@@H](NC(=O)[C@H](Cc2ccccc2)NC(=O)[C@H](Cc2cnc[nH]2)NC(=O)CNC(=O)[C@@H](NC(=O)[C@@H](NC(=O)[C@H](Cc2ccccc2)NC(=O)[C@@H](N)CCCNC(=N)N)C(C)(C)S)[C@@H](C)O)C1=O)C(=O)N[C@@H](Cc1ccc(O)cc1)C(=O)N1CCC[C@H]1C(=O)N[C@@H](CS)C(=O)O
met

Kd under 4 µM? Item: CC(C)C[C@H](NC(=O)CNC(=O)C(C)(C)NC(=O)[C@H](Cc1ccccc1)NC(=O)[C@H](Cc1cnc[nH]1)NC(=O)CNC(=O)[C@@H](NC(=O)[C@@H](NC(=O)[C@H](Cc1ccccc1)NC(=O)[C@H](CCCNC(=N)N)NC(=O)[C@@H](N)CCC(N)=O)C(C)(C)S)[C@@H](C)O)C(=O)N[C@@H](Cc1ccc(O)cc1)C(=O)N1CCC[C@H]1C(=O)N[C@@H](CS)C(=O)N[C@@H](CC(N)=O)C(=O)NCC(=O)N1CCC[C@H]1C(=O)O
not met

Kd under 4 µM? Item: CC(C)C[C@H](NC(=O)CNC(=O)CNC(=O)[C@H](Cc1cccnc1)NC(=O)[C@H](Cc1cnc[nH]1)NC(=O)CNC(=O)[C@@H](NC(=O)[C@@H](NC(=O)[C@H](Cc1ccccc1)NC(=O)[C@H](CCCN=C(N)N)NC(=O)[C@@H](N)CCC(N)=O)C(C)(C)S)[C@@H](C)O)C(=O)N[C@@H](Cc1ccc(O)cc1)C(=O)N1CCC[C@H]1C(=O)N[C@@H](CS)C(=O)N[C@@H](CC(N)=O)C(=O)NCC(=O)N1CCC[C@H]1C(=O)O
not met
